biological target: T1, human CD8A-Fc (in house) (human, UniProt P01732 22-182, limits assumed); test: SPR (ProteOn), captured hCD8A-Fc
T1 construct: captured by goat anti-human Fc on the ProteOn chip; also called hCD8A-Fc; recombinant human CD8 alpha; not shown: linker/tag and Fc of human IgG1
T1 sequence (P01732 22-182 limits assumed): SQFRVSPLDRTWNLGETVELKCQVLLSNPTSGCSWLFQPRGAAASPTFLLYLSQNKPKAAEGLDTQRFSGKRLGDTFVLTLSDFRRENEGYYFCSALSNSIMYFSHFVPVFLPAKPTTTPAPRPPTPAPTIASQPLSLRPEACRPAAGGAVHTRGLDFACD

>  <BINDER>
P283FR9P1366_H9 (designed binder, FN3 domain) LPAPKNLVVSRVTEDSARLSWTAPDAAFDSFEIAYPEWPVNGEAIVLTVPGSERSYDLTGLKPGTEYWVVIWGVKGGVNSYPLSAIFTT

>  <koff / s⁻¹>
0.00198

$$$$
>  <BINDER>
P283GR7P1367_H2 (designed binder, FN3 domain) LPAPKNLVVSRVTEDSARLSWTAPDAAFDSFDIAYPEWPTDGEAIVLTVPGSERSYDLTGLKPGTEYFVVIYGVKGGGRSYPLSAIFTT

>  <koff / s⁻¹>
0.00235

$$$$
>  <BINDER>
P283ER9P1365_C1 (designed binder, FN3 domain) LPAPKNLVVSRVTEDSARLSWTAPDAAFDSFYIPYWESEVYGEAIALPVTGSERSYDLTGLKPGTEYQVSIIGVKGGVYSQPLAAIFTT

>  <koff / s⁻¹>
0.00115

$$$$
